# reported pIC50; entries follow
measured-on: human mGlu2 (Homo sapiens, UniProt Q14416)
Sequence (Q14416 19-872): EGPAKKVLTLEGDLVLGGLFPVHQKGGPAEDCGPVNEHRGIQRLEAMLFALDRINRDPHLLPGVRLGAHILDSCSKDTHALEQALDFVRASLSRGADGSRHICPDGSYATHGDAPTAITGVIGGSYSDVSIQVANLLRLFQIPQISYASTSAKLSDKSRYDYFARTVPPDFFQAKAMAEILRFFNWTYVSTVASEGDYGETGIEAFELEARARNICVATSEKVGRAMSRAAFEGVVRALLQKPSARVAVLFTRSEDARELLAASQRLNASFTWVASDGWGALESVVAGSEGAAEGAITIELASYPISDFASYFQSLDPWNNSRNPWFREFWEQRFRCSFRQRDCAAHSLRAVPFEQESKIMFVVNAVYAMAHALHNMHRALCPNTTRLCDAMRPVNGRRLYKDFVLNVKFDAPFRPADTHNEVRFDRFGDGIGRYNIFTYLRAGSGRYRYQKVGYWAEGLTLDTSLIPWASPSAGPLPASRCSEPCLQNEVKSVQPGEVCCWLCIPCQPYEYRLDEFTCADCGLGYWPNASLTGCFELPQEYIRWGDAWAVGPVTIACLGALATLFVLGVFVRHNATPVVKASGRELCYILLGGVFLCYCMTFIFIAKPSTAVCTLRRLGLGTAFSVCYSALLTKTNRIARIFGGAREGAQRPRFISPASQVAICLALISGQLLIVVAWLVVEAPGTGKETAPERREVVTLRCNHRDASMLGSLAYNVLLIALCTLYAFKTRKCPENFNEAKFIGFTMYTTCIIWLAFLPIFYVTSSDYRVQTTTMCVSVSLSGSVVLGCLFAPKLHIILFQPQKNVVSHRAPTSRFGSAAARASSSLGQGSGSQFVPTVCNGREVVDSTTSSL
pIC50: −log10 of the molar value.
measured-property: pIC50

[
  {
    "compound-smiles": "Cc1noc(C)c1-c1cc2c(cc1-c1ccc(F)cc1F)C(=O)NC2",
    "measured-property": "pIC50",
    "bound-type": "<",
    "readout-value": 5.00
  },
  {
    "compound-smiles": "O=C1NCc2cc(-c3cnn(CCN4CCOCC4)c3)c(-c3ccc(F)cc3F)cc21",
    "measured-property": "pIC50",
    "bound-type": "<",
    "readout-value": 5.00
  },
  {
    "compound-smiles": "N#Cc1cccc(-c2cc3c(cc2-c2cc(F)cc(C#N)c2)C(=O)NC3)c1",
    "measured-property": "pIC50",
    "bound-type": "<",
    "readout-value": 5.00
  },
  {
    "compound-smiles": "N#Cc1cccc(-c2cc3c(cc2-c2ccc(C(F)(F)F)cc2F)C(=O)NC3)c1",
    "measured-property": "pIC50",
    "bound-type": "=",
    "readout-value": 5.51
  },
  {
    "compound-smiles": "COc1cc(F)c(-c2cc3c(cc2-c2cccc(C#N)c2)CNC3=O)cc1F",
    "measured-property": "pIC50",
    "bound-type": "<",
    "readout-value": 5.00
  },
  {
    "compound-smiles": "Cc1ncc(S(=O)(=O)Nc2ccccc2-c2cc3c(cc2-c2ccc(F)cc2F)C(=O)NC3)s1",
    "measured-property": "pIC50",
    "bound-type": "=",
    "readout-value": 6.02
  },
  {
    "compound-smiles": "O=C1NCc2cc(CCc3cncnc3)c(-c3ccc(F)cc3F)cc21",
    "measured-property": "pIC50",
    "bound-type": "=",
    "readout-value": 6.18
  },
  {
    "compound-smiles": "CS(=O)(=O)c1cccc(-c2cc3c(cc2-c2ccc(F)cc2F)C(=O)NC3)c1",
    "measured-property": "pIC50",
    "bound-type": "=",
    "readout-value": 5.89
  }
]

----------
Recorded IC50 by entry
measured-on: human mGlu2 (Homo sapiens, UniProt Q14416)

[
  {
    "molecule": "N#Cc1cccc(-c2cc3c(cc2-c2ccc(F)c(C#N)c2)C(=O)NC3)c1",
    "bound-type": ">",
    "IC50, nM": 10000
  },
  {
    "molecule": "O=C1NCc2cc(-c3cnn(C4COC4)c3)c(-c3ccc(F)cc3F)cc21",
    "bound-type": ">",
    "IC50, nM": 10000
  },
  {
    "molecule": "N#Cc1cccc(-c2cc3c(cc2-c2ccc(C#N)c(F)c2)C(=O)NC3)c1",
    "bound-type": ">",
    "IC50, nM": 10000
  },
  {
    "molecule": "COc1cc(F)ccc1-c1cc2c(cc1-c1cccc(C#N)c1)CNC2=O",
    "bound-type": "=",
    "IC50, nM": 660
  },
  {
    "molecule": "O=C1NCc2cc(-c3ccc(=O)n(C(F)F)c3)c(-c3ccc(F)cc3F)cc21",
    "bound-type": "=",
    "IC50, nM": 2020
  },
  {
    "molecule": "O=C1NCc2cc(-c3cnn(CC(F)(F)F)c3)c(-c3ccc(F)cc3F)cc21",
    "bound-type": "=",
    "IC50, nM": 366
  },
  {
    "molecule": "Cn1cc(S(=O)(=O)Nc2ccccc2-c2cc3c(cc2-c2ccc(F)cc2F)C(=O)NC3)cn1",
    "bound-type": "=",
    "IC50, nM": 637
  },
  {
    "molecule": "N#Cc1cccc(-c2cc3c(cc2-c2cc(F)c(F)cc2F)C(=O)NC3)c1",
    "bound-type": "=",
    "IC50, nM": 1520
  },
  {
    "molecule": "O=C1NCc2cc(-c3ccnn3C3CCCCO3)c(-c3ccc(F)cc3F)cc21 (stereo not shown)",
    "bound-type": "=",
    "IC50, nM": 5910
  },
  {
    "molecule": "COc1ccc(-c2cc3c(cc2-c2cccc(C#N)c2)CNC3=O)c(F)c1",
    "bound-type": "=",
    "IC50, nM": 736
  }
]
